Target desc: human PAR-2 (hPAR-2) receptor expressed in HEK-293 T cells in an endogenous manner (Homo sapiens, UniProt P55085)
Construct: human PAR-2 (hPAR-2) receptor expressed in HEK-293 T cells in an endogenous manner; endogenous in cells
Sequence (P55085 26-397): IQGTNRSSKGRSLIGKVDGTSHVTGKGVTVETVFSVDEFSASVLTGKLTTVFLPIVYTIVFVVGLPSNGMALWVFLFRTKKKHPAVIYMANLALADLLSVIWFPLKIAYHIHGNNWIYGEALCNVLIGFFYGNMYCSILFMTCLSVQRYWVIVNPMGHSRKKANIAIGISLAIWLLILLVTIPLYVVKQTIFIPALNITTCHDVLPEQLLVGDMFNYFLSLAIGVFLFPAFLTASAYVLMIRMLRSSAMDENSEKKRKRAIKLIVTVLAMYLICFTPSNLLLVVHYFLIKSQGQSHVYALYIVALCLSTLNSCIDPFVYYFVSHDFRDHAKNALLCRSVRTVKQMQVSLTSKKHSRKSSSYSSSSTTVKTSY
Test name: In vitro human PAR-2 functional antagonist activity using calcium assays (Fluo4AM, FLIPR Tetra)
Test conditions: HEK-293 T cells stimulated by an EC80 of the 2-Furoyl-LIGRLO-NH2 peptide after 10 min incubation with compound; 20 concentrations, duplicate, two independent experiments
Measure name: IC50

// below: answered compounds
{"Compound": "CC(C)Cn1cc(-c2ccc(C#N)cc2)c2ccc(C(=O)N3CCNC(=O)C3(C)C)nc21 [Example 106]", "IC50": "0.02 to 10 µM"}
{"Compound": "CC(C)Cc1nn(-c2ccc(C(F)(F)F)nc2)c2ccc(C(=O)N3CCNC(=O)C3(C)C)nc12 [Example 66]", "IC50": "> 10 µM"}
{"Compound": "COc1ccc(-c2cn(CC(C)C)c3nc(C(=O)N4CCNC(=O)C4(C)C)ccc23)cc1 [Example 111]", "IC50": "0.02 to 10 µM"}

Continue with the compound presented below.
Note IC50 for the compound shown: Cc1cc(N2CC3CN(C(=O)c4ccc5c(-c6ccc(Cl)c(F)c6)cn(C(C)(C)C)c5n4)C3C2)nc(C)c1C(=O)O (stereo not shown) [Example 101] 0.02 to 10 µM
